System: SR
Assay Procedure: NCI tumour cell line growth inhibition, 48 h
Active and inactive are the calls of the source. No stated cut-off is given here; in the data, active = GI50 up to about 1.1 µM and inactive = higher.
Readout: GI50

Nc1nc(N)c2cc(CNc3ccc(C(=O)NC(CC(=O)O)C(=O)O)c(Cl)c3)ccc2n1 (stereo not drawn) = 0.05 µM (active)
C[N+](C)(C)/N=C\c1ccc(O)c(O)c1 = > 100 µM (inactive)
N#Cc1nc(-c2cccnc2)oc1N = > 100 µM (inactive)
COC(=O)NC1C(C)OC(OC2C/C=C(/C)C3C=CC4C(OC5CC(OC6CC(O)C(OC7CC(O)C(OC)C(C)O7)C(C)O6)C(O)C(C)O5)C(C)CC(C)C4C3(C)C(=O)C3=C(O)C4(CC(C)C(CO)=CC4/C=C\2C)OC3=O)CC1(C)[N+](=O)[O-] (stereo not drawn) = 14.8 µM (inactive)
Cc1ccc2c(n1)C(=O)c1cc(C)c(C)cc1C2=O = 30.2 µM (inactive)
COc1cc(/C=C\c2ccc(Cl)cc2)cc(OC)c1OC = 0.0652 µM (active)
COC(=O)C1=C2Nc3ccccc3C23CCN2C(O)C4(CC5CC67CCOC6CCN6CCC8(c9cccc(OC)c9N(C4)C58O)C67)C4OCCC4(C1)C23 (stereo not drawn) = 14.7 µM (inactive)
CN1CCc2[nH]nc(-c3n[nH]c4c3CN(C)CC4)c2C1 = > 100 µM (inactive)
N=C(N)SCc1ccc(Cl)c2ccccc12.O=[N+]([O-])c1ccc(O)c([N+](=O)[O-])c1 = 1.04 µM (active)
CCOC(=O)c1c[nH]c2c(ccc3nn(C)nc32)c1=O = 84.1 µM (inactive)
O=C(O)CCC1c2[nH]c3ccccc3c2CCN1Cc1ccccc1 (stereo not drawn) = > 100 µM (inactive)
O=C(CC1(O)C(=O)Nc2c(Cl)cc(Cl)cc21)c1cccc([N+](=O)[O-])c1 (stereo not drawn) = 51.9 µM (inactive)
NC(=S)N/N=C(/C(=O)Nc1nc2ccc([N+](=O)[O-])cc2s1)C1C(=O)NC(=S)NC1=O = > 100 µM (inactive)
O=C(CC(=O)N1N=C(N(c2ccccc2)c2ccccc2)CC1c1ccccc1)Nc1ccc(Cl)cc1 (stereo not drawn) = > 100 µM (inactive)
CC(Nc1ccc(S(=O)(=O)NC(=N)N)cc1)c1c2ccccc2nc2ccccc12 (stereo not drawn) = 14.2 µM (inactive)
Cc1ccnc(NS(=O)(=O)c2ccc(NC(=O)c3ccc4nc5ccccc5c(Nc5ccc(S(=O)(=O)Nc6nccc(C)n6)cc5)c4c3)cc2)n1 = 21.9 µM (inactive)
Nc1ncnc2c1cnn2COCC(O)CO (stereo not drawn) = > 100 µM (inactive)
Cc1cc(C#N)c(Nc2ccccc2[N+](=O)[O-])s1 = 40.2 µM (inactive)
Cc1ccc(NC(=O)c2cc(S(=O)(=O)Nc3nc4cccnc4[nH]3)c(SSc3cc(Cl)c(C(=O)Nc4ccc(C)cc4)cc3S(=O)(=O)Nc3nc4cccnc4[nH]3)cc2Cl)cc1 = > 100 µM (inactive)
Cn1ccnc1CCc1c(Cl)cccc1Cl = > 100 µM (inactive)
OCSc1nn(CO)c(=S)s1 = 0.0643 µM (active)
COC(=O)CCC(NC(=S)N/N=C/c1cccs1)C(=O)OC (stereo not drawn) = > 100 µM (inactive)
O=c1[nH]c2ccc([N+](=O)[O-])c(Cl)c2c2ccccc12 = 1.85 µM (inactive)
N=c1oc2ccc(Cl)cc2cc1C(=O)Nc1ccccc1 = > 100 µM (inactive)
Nc1nc2c(c(-c3ccc(F)cc3)n1)COC/C2=C\c1ccc(F)cc1 = 17 µM (inactive)
O=C(/N=N/c1ccccc1Cl)NNc1ccccc1Cl = 27.5 µM (inactive)
COC(=O)CC(NC(=O)OCc1ccccc1)C(C(=O)OCc1ccccc1)C1(C)OCCO1 (stereo not drawn) = 19.1 µM (inactive)
COc1cc2c(cc1OCCCCOc1cc3nc(C)nc(Cl)c3cc1OC)N=C[C@@H]1CCCN1C2=O = 0.57 µM (active)
C=C1C(=O)[C@@]23CC[C@@H]4[C@@]5(C)CCC[C@@]4(OC5=O)C2(C)CC[C@]1(OC)C3 (stereo partly drawn) = 0.23 µM (active)
CC1=C(/C=C/C(=O)O)C(C)(C)CCC1 = > 100 µM (inactive)
O=C1c2cc(Cl)ccc2N=C(NC2CCCC2)C2CSCN12 (stereo not drawn) = 41.5 µM (inactive)
COCC12CCC(OC)C34C5CC6(O)C(OC)C=C(C5C6OC(=O)c5ccccc5)C(C(OC)C13)C4N(C)C2 (stereo not drawn) = > 100 µM (inactive)
O=c1c2cc(I)ccc2nc(Sc2ccc([N+](=O)[O-])cc2[N+](=O)[O-])n1Cc1ccccc1 = 0.394 µM (active)
COc1cc(C2=C(C)[C@@H]3CN(CC=C3c3ccc(Cl)cc3)C2)c(S(=O)(=O)O)cc1OC = > 100 µM (inactive)
C=C(C)C12OC1[C@@]1(C)C(=CC2=O)CCC(O)[C@@H]1C (stereo partly drawn) = 1.84 µM (inactive)
Cc1ccc(C(=O)N/N=C(\N=N\c2ccccc2[N+](=O)[O-])c2ccc(N(C)C)cc2)cc1 = 33.7 µM (inactive)
O=[N+]([O-])c1cc2ccc1OCc1cccc(n1)COc1ccc(cc1[N+](=O)[O-])/C=N\CCCCCCCC/N=C\2 = > 100 µM (inactive)
CCOC(=O)CSc1nnc(CSc2nc(-c3ccccc3)c(-c3ccccc3)[nH]2)n1-c1ccccc1 = 39.4 µM (inactive)

* * *

Tested on: HCT-116
Assay Procedure: NCI tumour cell line growth inhibition, 48 h
Calls of active or inactive are those of the source. Cut-off read from the data, not from the text of the source: active = GI50 up to about 1.1 µM and inactive = higher.
Outcomes: active, inactive

CCN(C(=O)N[C@H](C(=O)N[C@@H](C)C(=O)OC)C(C)C)c1ccccc1 = inactive
C=C1C(O)C2(O)OCC34C(CC5C(C)=CC(=O)C(O)C5(C)C23)OC(=O)C(OC(=O)C/C=C(\C)CCCCC)C14 (stereo not given) = active
Clc1cccc2c1OCC1C(c3ccccc3)=NN(c3ccccc3)C21 (stereo not given) = inactive
COc1ccc2oc(C(=O)O)c3c2c1CCC3 = inactive
C[N+](C)(C)/N=C\c1ccc(O)c(O)c1 = inactive

* * *

Listing of recorded GI50 by entry.
System: KM-20L2
Assay Procedure: NCI tumour cell line growth inhibition, 48 h
Active and inactive are the calls of the source. Rule as the data show it: active = GI50 up to about 1.1 µM and inactive = higher.
Readout: GI50

C/C(=C1/N=C(c2cc([N+](=O)[O-])ccc2Cl)N(c2ccc(Br)cc2)C1=O)c1ccc(N(CCC#N)CCC#N)cc1C = 16.1 µM (inactive)
CCC(CC)n1cc(C(=O)NC(=O)NCCCCCOC(=O)CCCCCCCCCCC(=O)OCCCCCNC(=O)NC(=O)c2cn(C(CC)CC)c(=O)[nH]c2=O)c(=O)[nH]c1=O = > 100 µM (inactive)
Cc1no[n+]([O-])c1/C=N/NS(=O)(=O)c1ccccc1 = > 100 µM (inactive)
C/C(CC(=O)Nc1cc(C)ccc1C)=N\NC(=O)c1ccncc1 = > 100 µM (inactive)
CCCCCCCCC1C(C)c2c([nH]c3ccccc23)C2C(=O)N(c3ccccc3)C(=O)C21 (centres undefined) = 11.2 µM (inactive)
CO[C@H](c1ccccc1)[C@H](C)N(C)c1ccc2ccccc2c1C1=NC(C)(C)CO1 = 13.4 µM (inactive)
O=P(NC12CC3CC(CC(C3)C1)C2)(N1CC1)N1CC1 = > 100 µM (inactive)
O/N=C1/C(=C/c2ccc(Cl)c(Cl)c2)CCCC1C(NO)c1ccc(Cl)c(Cl)c1 (centres undefined) = 17.9 µM (inactive)
Cn1ccnc1CCc1c(Cl)cccc1Cl = > 100 µM (inactive)

* * *

Listing of recorded GI50 by entry.
Tested on: M14
Assay Procedure: NCI tumour cell line growth inhibition, 48 h
Active and inactive are the calls of the source. Rule as the data show it: active = GI50 up to about 1.1 µM and inactive = higher.
Readout: GI50

COC(=O)C1=C2Nc3ccccc3C23CCN2C(O)C4(CC5CC67CCOC6CCN6CCC8(c9cccc(OC)c9N(C4)C58O)C67)C4OCCC4(C1)C23 (stereo unspecified) = 71.9 µM (inactive)
COc1ccc(C2=C(N)c3ccccc3C2=O)cc1 = > 100 µM (inactive)
CC1(C)[C@H]2CC[C@](C)(C2)[C@]1(S)Cc1ccccn1 = 84.1 µM (inactive)
C/C(=N\N)C(CN1CCOCC1)C(c1ccccc1)c1c(O)c2ccccc2oc1=O (stereo unspecified) = > 76.6 µM (inactive)
CN(C)c1ccc(/C=N/Nc2nc3ccccc3c(=O)n2-c2ccccc2)cc1 = 78 µM (inactive)
CC(C(=O)c1ccc(Cl)cc1)C1OC(=O)C(Cl)=C1Cl (stereo unspecified) = 34.1 µM (inactive)
COc1ccc2c(c1)CCN1CCc3cc(OC)c(OC)cc3CC21 (stereo unspecified) = 58.5 µM (inactive)
CCn1nc(C)c2c1C(=O)NC(C)C(=O)N2 (stereo unspecified) = > 100 µM (inactive)
O=C1OC(=O)C([Se]c2ccccc2)=C1[Se]c1ccccc1 = > 100 µM (inactive)
CCCC(C)C[C@@H](C)CC(C)/C=C(\C)c1oc(=O)c(C)c(O)c1C.CC[C@@H](C)C[C@@H](C)C[C@@H](C)/C=C(\C)c1oc(=O)c(C)c(O)c1C (stereo partly specified) = 15.5 µM (inactive)
COC(=O)c1nc2n(n1)-c1ccccc1C(=O)N(Cc1ccccc1)C2 = > 100 µM (inactive)
COc1cc2c(cc1OC(=O)CC(C)O)C1C(OC2=O)C(OC(C)=O)C=C2CCN(C)[C@H]21 (stereo partly specified) = 68.5 µM (inactive)
CCOc1ccc(/N=N/C2C(=O)N(C(=O)CC(=O)Nc3ccccc3OC)N=C2C)cc1 (stereo unspecified) = 25.5 µM (inactive)
O=C(CC(=O)c1cccc([N+](=O)[O-])c1)C(=O)Nc1nc([N+](=O)[O-])cs1 = > 100 µM (inactive)
Cc1[nH]c2[nH]c(=S)nc(NC(N)=S)c2c1Cc1ccccc1 = 42.3 µM (inactive)
CCCCCCc1ccc(CCCCCCCC(=O)O)o1 = > 100 µM (inactive)
CC1=C(C(=O)NNC(=O)CC#N)CC(C(=O)NNC(=O)CC#N)=C(C)N1 = > 100 µM (inactive)
COc1cc2c3c(cc(Cl)nc3c1OC)C(O)(CC(=O)c1ccccc1)C(=O)N2 (stereo unspecified) = 16.4 µM (inactive)
C=C(Br)CNC(=O)CCC(=O)NCC(=C)Br = > 100 µM (inactive)
Nc1nc2c(c(-c3ccccc3Cl)n1)COC/C2=C\c1ccccc1Cl = 15.7 µM (inactive)
O=Cc1ccccc1B(O)O = > 100 µM (inactive)
